Target: Voltage-gated potassium channel subunit beta-2 (Rattus norvegicus) (UniProt P62483)
Sequence (P62483 whole entry, looked up): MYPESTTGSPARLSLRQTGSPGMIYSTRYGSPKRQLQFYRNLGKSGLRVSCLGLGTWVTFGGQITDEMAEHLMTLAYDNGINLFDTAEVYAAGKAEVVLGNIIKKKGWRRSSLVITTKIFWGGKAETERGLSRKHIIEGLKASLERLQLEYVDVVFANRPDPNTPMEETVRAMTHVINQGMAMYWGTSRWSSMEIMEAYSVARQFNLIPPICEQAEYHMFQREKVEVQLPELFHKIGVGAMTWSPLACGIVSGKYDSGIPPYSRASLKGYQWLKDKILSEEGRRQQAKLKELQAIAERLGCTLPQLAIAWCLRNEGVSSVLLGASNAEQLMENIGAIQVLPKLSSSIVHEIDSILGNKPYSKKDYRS
Experiment: enhancers of rat Kvbeta2 NADPH turnover – biochemical, NADPH fluorescence, primary screen (AID 623);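 also: fluorescence intensity change per second fitted from 20 to 320 s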
Details: Recombinant KvBeta, NADPH fluorescence decrease slope, 10 min; at 10 µM; stronger effect = lower value
READOUT: NADPH fluorescence slope
No unit in the answer, please; the number alone is enough.

Reported NADPH fluorescence slope for COCCNC(=O)C(c1ccc(C)o1)N(Cc1cccs1)C(=O)c1snc(C(N)=O)c1N (stereo unspecified) : what is it?
-4.3e-05

Reported NADPH fluorescence slope for O=C(COC(=O)CCOc1ccccc1)Nc1ccc(Cl)cn1 : what is it?
-1.8e-05

Reported NADPH fluorescence slope for CCOC(=O)C1CCN(c2c(NC3CCCCCCC3)c(=O)c2=O)CC1 : what is it?
-4.2e-05

Reported NADPH fluorescence slope for NC(=O)C1(N2CCCCC2)CCN(CC(=O)Nc2cc(Cl)ccc2Cl)CC1 : what is it?
-5.7e-05

Reported NADPH fluorescence slope for CCC(=O)OC1(C#CCOc2ccc(OC)cc2)CCN(C)CC1 : what is it?
-2.5e-05

Reported NADPH fluorescence slope for COc1cc(NC(=O)c2nccnc2C(=O)O)cc(OC)c1 : what is it?
-2e-05

====

For each of the molecules below, state its inhibition.
Assay: blockers of RIG-like receptor reporter activation – cell-based, Sendai virus stimulus, luciferase, 10K MLSCN set, TLR/RLR signaling modifier project, primary screen (AID 602276);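 also: firefly luciferase from ISG56 promoter only with Renilla not read in this screen; 0% = Sendai virus plus DMSO and 100% = medium plus DMSO without virus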
Conditions: HEK293 RL24 IRF3 luciferase reporter, at 10 µM, stronger effect = higher value
Respond with the bare value in %.

Reported inhibition for CCOC(=O)c1ccc(CNC(=O)C(Cc2c[nH]c3ccccc23)NC(C)=O)o1 (stereo not given) : what is it?
17

Reported inhibition for COc1ccc(NC(=O)NCCN2C(=O)C3C4C=CC(C4)C3C2=O)cc1 (stereo not given) : what is it?
-29.6

Reported inhibition for Cc1cc(N2C(=O)CC(N3CCN(c4ccc(C(=O)c5cccs5)cc4)CC3)C2=O)no1 (stereo not given) : what is it?
-4.13

Reported inhibition for COc1cccc(NS(=O)(=O)c2cc(C)sc2C)c1 : what is it?
3.14

Reported inhibition for COc1ccc(N(CC(=O)Nc2ccc3c(c2)OCCO3)S(=O)(=O)c2cccnc2)cc1 : what is it?
-5.76

Reported inhibition for COC(=O)C1=C(C)NC(C)=C(C(=O)OC)C1C(=O)OC1CCCCC1=O (stereo not given) : what is it?
1.65

Reported inhibition for CCOC(=O)CC(=O)CSc1nc(-c2cccnc2)ccc1C#N : what is it?
-15.8

Reported inhibition for CC1=Nn2c(nnc2-c2ccccc2)SC1 : what is it?
11.5

Reported inhibition for COc1ccc2[nH]c(=O)c(CN(CCO)S(=O)(=O)c3ccc4c(c3)OCCO4)cc2c1 : what is it?
9.42

Reported inhibition for CCC(C)(C)n1nnnc1C(c1ccc(OC)c(OC)c1)N1CCN(c2ccccc2)CC1 (stereo not given) : what is it?
18.8

====

Experiment: TLR3 IRF3 reporter activation blockers – cell-based, poly I:C stimulus, luciferase, 10K MLSCN set, primary screen (AID 602277)
Details: HEK293-TLR3 RL24 IRF3 luciferase reporter, at 10 µM, stronger effect = higher value
Calls of active or inactive are those of the source.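 Rule for the calls: active = inhibition of the reporter signal at or above 50%; inactive = inhibition below 50%.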
READOUT: inhibition

Reported inhibition for Oc1ccc(Nc2nc(-c3ccc(O)cc3)cs2)cc1 : what is it?
-59.8% (inactive)

Reported inhibition for c1ccc(-c2cc(CSc3nc4ccccc4[nH]3)on2)cc1 : what is it?
-25% (inactive)

Reported inhibition for Cc1ccc2nc(/C(C#N)=N/O)[nH]c2c1 : what is it?
6.68% (inactive)

Reported inhibition for CC(=O)N1CCN(S(=O)(=O)c2ccc(S(=O)(=O)NC3CC3)cc2)CC1 : what is it?
18% (inactive)

Reported inhibition for C[C@H](NC(=O)Nc1cccc(C(F)(F)F)c1)C(=O)O : what is it?
22.6% (inactive)

Reported inhibition for CC(C(=O)Oc1ccc2c(c1)OCO2)N1C(=O)c2ccccc2C1=O (stereo unspecified) : what is it?
27.7% (inactive)

Reported inhibition for Cc1nn(-c2ccccc2)c2[nH]c(C(F)(F)F)cc(=O)c12 : what is it?
-1.53% (inactive)

Reported inhibition for COc1ccc(-n2c(COc3ccccc3)nnc2SCc2ccc(C#N)cc2)cc1 : what is it?
19.5% (inactive)

Reported inhibition for CCOCCCN(Cc1cc2cc(C)cc(C)c2[nH]c1=O)C(=O)N(CC)CC : what is it?
-6.77% (inactive)

Reported inhibition for O=C(Cn1ncc2c1-c1ccccc1OC2)Nc1ccc(Cl)cn1 : what is it?
29.8% (inactive)

Reported inhibition for CC(=O)C1=C(O)C(=O)N(Cc2ccco2)C1c1ccc(F)cc1 (stereo unspecified) : what is it?
0.393% (inactive)

====

Test: inhibitors of TNFa-induced NFkB p65 translocation, primary screen, imaging, HUVEC, MLSMR starter and 10KST1 sets (AID 438);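 also: compound added about 3h40 before a 20 min TNFalpha stimulation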
Settings: HUVEC TNFa-induced p65 nuclear translocation; measured here: nuclei count (cytotoxicity indicator), at 2.08 µM
Tick Condition met if cell count is 600 or greater. Tick Condition not met if cell count is less than 600.

Item CCC(=O)N/C(N)=N/c1nc(C)c2cc(OC)ccc2n1 with cell count of 600 or above?
Condition met

Item O=C(Cc1nc2ccccc2s1)c1ccc(O)cc1O with cell count of 600 or above?
Condition not met

Item Cc1onc(-c2ccccc2)c1C(=O)N1CCOCC1 with cell count of 600 or above?
Condition met

Item CSc1nc2ccc(S(=O)(=O)N3CCOCC3)cc2s1 with cell count of 600 or above?
Condition not met

Item COc1cccc(NC(=O)N(CCCN2CCOCC2)C(C)c2cc3cccc(OC)c3o2)c1 (stereo unspecified) with cell count of 600 or above?
Condition met

Item CC(C)CCN(C)C1CCN(S(=O)(=O)c2ccc(F)cc2)CC1 with cell count of 600 or above?
Condition met

Item COc1ccc(C(=O)N2CCOCC2)cc1Br with cell count of 600 or above?
Condition not met

Item O=C(NCCCN1CCN(Cc2ccccc2)CC1)C1CCN(c2nnc(-n3cccc3)s2)CC1 with cell count of 600 or above?
Condition not met

Item COc1ccccc1C(=O)NCC(c1cccnc1)N(C)C (stereo unspecified) with cell count of 600 or above?
Condition met

Item CN(C)S(=O)(=O)c1ccc(S(=O)(=O)N(Cc2ccco2)Cc2ccccc2Cl)cc1 with cell count of 600 or above?
Condition not met

Item COc1ccc2c(-c3cccnc3)cc(=O)[nH]c2c1 with cell count of 600 or above?
Condition not met

Item O=C(CN1CCN(Cc2ccccc2)CC1)NCC1COc2ccccc2O1 (stereo unspecified) with cell count of 600 or above?
Condition not met

Item Cn1c(=O)c2c(nc(SCCCC#N)n2Cc2c(F)cccc2Cl)n(C)c1=O with cell count of 600 or above?
Condition met

Item COc1ccc(-c2nsc(SCC(=O)Nc3cc(C)on3)n2)cc1 with cell count of 600 or above?
Condition not met

Item Cc1cc(C)c2c(n1)nn1c(N3CCN(c4ccccc4C)CC3)cc(C)nc21 with cell count of 600 or above?
Condition not met

Item Cc1nc(C)c(C(=O)OCC(=O)N2CCN(c3ccccc3)CC2)s1 with cell count of 600 or above?
Condition met

Item Oc1ccccc1C1=Nc2nc3ccccc3n2C(c2ccccc2)C1 (stereo unspecified) with cell count of 600 or above?
Condition not met

Item O=C(CC(Cc1ccccc1)C(=O)O)NCCc1ccc2c(c1)OCO2 (stereo unspecified) with cell count of 600 or above?
Condition met

Item Cc1c(Cc2ccccc2)sc(N)c1C(N)=O with cell count of 600 or above?
Condition not met

Item CC(C)=CCC(C)(C)C1OCCN1C(=O)c1ccccc1 (stereo unspecified) with cell count of 600 or above?
Condition not met

Item COc1cccc(NC(=O)N2CCC(N3CCCCC3)CC2)c1 with cell count of 600 or above?
Condition not met

Item CN1C(=O)c2oc3ccccc3c(=O)c2C1c1ccccn1 (stereo unspecified) with cell count of 600 or above?
Condition not met

Item O=C(O)CSc1ncn[nH]1 with cell count of 600 or above?
Condition met

Item N#CC1=C(N)OC2=C(CCC/C2=C/c2ccoc2)C1c1ccoc1 (stereo unspecified) with cell count of 600 or above?
Condition not met

Item COc1cc2c(cc1NC(=O)CSc1nnc(Cc3cccs3)n1C)oc1ccccc12 with cell count of 600 or above?
Condition not met

Item COc1ccc(CN2C(=O)c3ccccc3C2C(=O)NC2CCCC2)c(OC)c1 (stereo unspecified) with cell count of 600 or above?
Condition met

Item CC12CCC(C(=O)N3CCN(C(=O)C45CCC(C)(C(=O)O4)C5(C)C)CC3)(OC1=O)C2(C)C with cell count of 600 or above?
Condition not met

Item CCN(c1ccc(OC)cc1)S(=O)(=O)c1ccc2c(c1)CCN2C(=O)CCC(=O)O with cell count of 600 or above?
Condition met

Item CCC12CN3CC(CC)(CN(C1)C3c1ccc(OC(C)C)cc1)C2=O (stereo unspecified) with cell count of 600 or above?
Condition met

Item O=c1c2ccccc2nc(SCc2nc(-c3ccccc3)no2)n1-c1ccc(F)cc1 with cell count of 600 or above?
Condition met

Item CCC(C)OC(=O)c1[nH]c2c(c1C)C(=O)CC(c1ccc(N(C)C)cc1)C2 (stereo unspecified) with cell count of 600 or above?
Condition met

Item O=C(CCCC(=O)N(CC(=O)NC1CCCCC1)Cc1ccc2c(c1)OCO2)Nc1ccccn1 with cell count of 600 or above?
Condition not met

Item Cc1ccc(-c2nn[nH]n2)cc1 with cell count of 600 or above?
Condition not met

Item CC(=O)Nc1ccc(S(=O)(=O)N2CCSC2c2ccccc2)cc1 (stereo unspecified) with cell count of 600 or above?
Condition not met

Item CC(=O)c1c(O)cc(C)n(Nc2nc(C)cc(C)n2)c1=O with cell count of 600 or above?
Condition met

Item c1ccc(-n2nnnc2OCCOc2nnnn2-c2ccccc2)cc1 with cell count of 600 or above?
Condition not met

Item Cc1nn(-c2ccccc2)c2c1C(O)n1c(nc3ccccc31)S2 (stereo unspecified) with cell count of 600 or above?
Condition not met

Item Cn1c(=O)c2c(nc(NCCCO)n2Cc2cccc(Br)c2)n(C)c1=O with cell count of 600 or above?
Condition met

Item Cc1cc(NC(c2cccnc2)c2c(C)[nH]c3ccccc23)no1 (stereo unspecified) with cell count of 600 or above?
Condition not met
